Assay: solvent given as SMILES
Conditions: in ClCCl
Reported Property: fluorescence lifetime (ns)
// note: answer is a bare numeric in ns

Solved cases below.
> print(dat)
                                   compound      reported.property  quantitative.readout
1  Cc1ccc(-c2cc(-c3ccccc3)c3c(N)nc(N4CCCC4)c(C#N)c3n2)cc1  fluorescence lifetime                  13.1
2      Cc1cc(-c2ccc(C(C)(C)C)cc2)cc(C)[o+]1  fluorescence lifetime                   2.1
3  N#Cc1ccc(-n2c(-c3ccc(-c4ccc(N(c5ccccc5)c5ccccc5)cc4)s3)nc3c4ccccc4c4ccccc4c32)c2ccccc12  fluorescence lifetime                   5.4

Proceed to the following item.
Ask | Tell me its fluorescence lifetime given O=P1(c2ccccc2)C(c2ccc(C(F)(F)F)cc2)=Cc2cc3ccccc3cc21 (centres undefined) as the entry.
Reply | 3

Cited source: the Deep4Chem optical property database
